Values compiled from ChEMBL document CHEMBL3259574.

- Tested on: Pseudomonas aeruginosa
- test: Antimicrobial activity against Pseudomonas aeruginosa MTCC424 assessed as zone diameter at 100 ug/ml after 24 hrs incubation by agar diffusion as say cup method
- Format: functional
- protocolConditions: MTCC424, 24 h, read-out: DIZ
parameterMeasured: zone of inhibition at 100 µg/mL (mm)

>>> measurednumber("O=C(N[C@H](CO)[C@H](O)c1ccc([N+](=O)[O-])cc1)C(Cl)Cl")
33.6
>>> measurednumber("CCOP(=O)(OCC)[Se]c1ccccc1")
32.1
>>> measurednumber("CC(C)OP(=O)(OC(C)C)[Se]c1ccccc1")
33.4
>>> measurednumber("O=P(OCc1ccccc1)(OCc1ccccc1)[Se]c1ccccc1")
24.3
>>> measurednumber("COP(=O)(OC)[Se]c1ccccc1")
25.6
>>> measurednumber("CCOP(=O)(OCC)Sc1ccccc1")
23.6
>>> measurednumber("O=P(OCc1ccccc1)(OCc1ccccc1)Sc1ccccc1")
25.4
